pIC50: −log10 of the molar value.
Let's go through some recorded pIC50 values for Xanthine dehydrogenase/oxidase (Bos taurus) together.
EXPERIMENTAL ENDPOINT: pIC50

[A] N#Cc1cccc(Cn2cc(COc3ccccc3C=O)nn2)c1
[B] CCC(C)n1cc(COc2ccc(F)cc2C=O)nn1 (configuration not stated)
[C] CCn1cc(COc2ccc(F)cc2C=O)nn1
Exam item: list the entries in increasing order of pIC50. Show the ranking through the labels, in the order asked for. B, C, A

[1] CCCCn1cc(COc2ccc(F)cc2C=O)nn1
[2] CCCn1cc(COc2ccc(F)cc2C=O)nn1
Rank 1 against 2 by their pIC50 values and give the higher one. Reply briefly: the label of your chosen item. 1
(1: 5.60, 2: 5.28)

[I] CC(C)n1cc(COc2ccc(F)cc2C=O)nn1
[II] COc1ccccc1Cn1cc(COc2ccccc2C=O)nn1
Param pair: I , II . Output: the one whose pIC50 is numerically greater. Reply briefly: the label of your chosen item. II

Values were extracted from ChEMBL document CHEMBL5131461.
